# Tested on: Mus musculus
# TEST SUMMARY: Toxicity in Balb/c mouse xenografted with […] cells assessed as body weight at 10 mg/kg/day, ig administered 6 days per week for two consecutive weeks (reference value: 20.17 +/- 3.66 g)
# Assay type: organism-based
# CONDITION NOTES: in vivo, po, 144 h
# Activity values compiled below
MEASURED ENDPOINT: Activity (g)

STRUCTURE SMILES: CCCCCCCCCCCCNc1nc2ccccc2nc1Oc1ccc(C(=O)N[C@@H](C)C(=O)O)cc1
MEASURED ENDPOINT: Activity
READOUT UNITS: g
OBSERVED RESULT: 24.62
//
STRUCTURE SMILES: CCCCCCCCCCCCNc1nc2ccccc2nc1Oc1ccc(C(=O)N[C@@H](Cc2ccccc2)C(=O)O)cc1
MEASURED ENDPOINT: Activity
READOUT UNITS: g
OBSERVED RESULT: 20.85
//
STRUCTURE SMILES: Cc1nc2ccc(Cl)cc2nc1Oc1ccc(C(=O)N[C@@H](CC(C)C)C(=O)O)cc1
MEASURED ENDPOINT: Activity
READOUT UNITS: g
OBSERVED RESULT: 23.25
//
STRUCTURE SMILES: Cc1nc2ccccc2nc1Oc1ccc(C(=O)N[C@@H](CC(C)C)C(=O)O)cc1
MEASURED ENDPOINT: Activity
READOUT UNITS: g
OBSERVED RESULT: 22.46
//
STRUCTURE SMILES: COc1cccc2c1C(=O)c1c(O)c3c(c(O)c1C2=O)C[C@@](O)(C(=O)CO)C[C@@H]3O[C@H]1C[C@H](N)[C@H](O)[C@H](C)O1
MEASURED ENDPOINT: Activity
READOUT UNITS: g
OBSERVED RESULT: 23.32
//
STRUCTURE SMILES: CC[C@@H](C)[C@H](NC(=O)c1ccc(Oc2nc3ccccc3nc2NC(C)(C)C)cc1)C(=O)O
MEASURED ENDPOINT: Activity
READOUT UNITS: g
OBSERVED RESULT: 21.84

All figures here come from ChEMBL document CHEMBL3875151.
